For reference, IC50 measured on UniProt Q9NQS5:

Recorded results for 5 compounds are shown here.
Which value of IC50 has been reported for COc1ccc2c(c1OC)CCn1c(OC[C@@H]3COCCO3)cc(=O)c(C)c1-2 in the records?
100 to 500 nM

Please do the same for Cc1c2n(c(OC[C@@H]3COCCO3)cc1=O)CCc1cc(N3CC(F)(F)C3)ccc1-2 as well.
0.01 to 100 nM

Please do the same for CCOC(=O)N1CC(Oc2ccc3c(c2)CCn2c(OC[C@@H]4COCCO4)cc(=O)c(C)c2-3)C1 as well.
0.01 to 100 nM

Please do the same for Cc1c2n(c(NCC3CCCO3)cc1=O)CCc1cc(OCC(F)(F)F)ccc1-2 (centres unmarked) as well.
100 to 500 nM

Please do the same for COc1ccc2c(c1)CCn1c(OC[C@@H]3COCCO3)cc(=O)c(C)c1-2 as well.
0.01 to 100 nM

Continuing:
Which value of IC50 has been reported for Cc1c2n(c(OC[C@@H]3COCCO3)cc1=O)CCc1cc(N3CC(F)C3)ccc1-2 in the records?
0.01 to 100 nM

Please do the same for COc1cc2c(cc1OC)-c1c(C)c(=O)cc(NCC3CCCO3)n1CC2 (centres unmarked) as well.
> 1000 nM

Please do the same for Cc1c2n(c(OC[C@@H]3COCCO3)cc1=O)CCc1cc(C3CN(C(=O)NC(C)C)C3)ccc1-2 as well.
500 to 1000 nM
